Recorded clearance values for a group of compounds are listed next.
experiment: Empirical plasma PK model; assay type: in vivo, rat; details: rat, plasma, iv

Reference set (3 entries):
Compound	Experimental value
O=C1NC(=O)C(c2ccccc2)(c2ccccc2)N1	36 mL/min
CCN1CCC[C@H]1CNC(=O)c1c(O)c(Cl)cc(Cl)c1OC [Raclopride]	46.4 mL/min
CCN1CCC[C@H]1CNC(=O)c1c(OC)ccc(Br)c1OC [Remoxipride]	42.2 mL/min

Would you mind telling me what clearance value was observed for Cc1nc2n(c(=O)c1CCN1CCC(c3noc4cc(F)ccc34)CC1)CCCC2O (stereo not shown) ? 196 mL/min
